# Species: Rattus norvegicus
# PROTOCOL_SUMMARY: Open TG-GATES - Regimen: Daily Repeat
# Assay type: toxicity, organism-based, Sprague-Dawley
# Parameters: regimen Daily Repeat, gender Male, age 6 weeks
# SETTINGS: in vivo, po, 100 mg/kg, […], tissue Blood, route gavage, dose level Low, time 28 day
OBSERVATION_TYPE: Ret (%)
One number for each entry, in %.

>>> measured_value("CCOc1ccc(NC(=O)CC(C)O)cc1 (stereo not given)")
2.5
>>> measured_value("CCOC(=O)CCC(=O)O[C@H]1[C@H](O[C@@H]2[C@@H](C)[C@H](O[C@H]3C[C@@](C)(OC)[C@@H](O)[C@H](C)O3)[C@@H](C)C(=O)O[C@H](CC)[C@@](C)(O)[C@H](O)[C@@H](C)C(=O)[C@H](C)C[C@@]2(C)O)O[C@H](C)C[C@@H]1N(C)C [ERYTHROMYCIN ETHYLSUCCINATE]")
2.7
>>> measured_value("NC(N)=Nc1nc(CSCCC(N)=NS(N)(=O)=O)cs1")
2.2
>>> measured_value("COC1=CC(=O)C[C@@H](C)[C@]12Oc1c(Cl)c(OC)cc(OC)c1C2=O")
2.7

Inquiry: Tell me measured Ret for COc1ccc2[nH]c([S+]([O-])Cc3ncc(C)c(OC)c3C)nc2c1 (stereo not given) please.
Reply text: 2.6

---

# Species on record: Rattus norvegicus
# PROTOCOL_SUMMARY: Open TG-GATES - Regimen: Single
# Assay type: toxicity, organism-based, Sprague-Dawley
# Parameters: regimen Single, gender Male, age 6 weeks
# SETTINGS: in vivo, po, 100 mg/kg, 24 h, tissue Blood, route gavage, dose level High
OBSERVATION_TYPE: Lym (%)
Numbers only, in %.

>>> measured_value("CN(C)CCCN1c2ccccc2CCc2ccc(Cl)cc21")
78.2
>>> measured_value("CN(C)CCN(Cc1cccs1)c1ccccn1")
73.2
>>> measured_value("CC1=C(/C=C/C(C)=C/C=C/C(C)=C/CO)C(C)(C)CCC1")
79.2

Inquiry: State its Lym: CN(C)CCCN1c2ccccc2CCc2ccccc21
Reply text: 82.6

---

# Species on record: Rattus norvegicus
# PROTOCOL_SUMMARY: Open TG-GATES - Regimen: Single
# Assay type: toxicity, organism-based, Sprague-Dawley
# Set-up: regimen Single, gender Male, age 6 weeks
# SETTINGS: in vivo, po, 1000 mg/kg, 9 h, tissue Plasma, route gavage, dose level High
OBSERVATION_TYPE: LDH (IU/L)
Numbers only, in IU/L.

# annotated cases, reported LDH shown
>>> measured_value("COc1ccc2[nH]c([S+]([O-])Cc3ncc(C)c(OC)c3C)nc2c1 (centres undefined) [OMEPRAZOLE]")
174.4
>>> measured_value("NC(N)=Nc1nc(CSCCC(N)=NS(N)(=O)=O)cs1 [FAMOTIDINE]")
150
>>> measured_value("COC1=CC(=O)C[C@@H](C)[C@]12Oc1c(Cl)c(OC)cc(OC)c1C2=O [GRISEOFULVIN]")
153.2

Inquiry: Dear colleague, please send me the reported LDH for CCOC(=O)CCC(=O)O[C@H]1[C@H](O[C@@H]2[C@@H](C)[C@H](O[C@H]3C[C@@](C)(OC)[C@@H](O)[C@H](C)O3)[C@@H](C)C(=O)O[C@H](CC)[C@@](C)(O)[C@H](O)[C@@H](C)C(=O)[C@H](C)C[C@@]2(C)O)O[C@H](C)C[C@@H]1N(C)C [ERYTHROMYCIN ETHYLSUCCINATE] when you can.
Reply text: 169.2
